The values you see were collected from patent US7432260B2.

Provide the recorded pIC50 for the entries that follow.
Molecular target: GSK-3β (Homo sapiens, UniProt P49841)
Sequence (P49841 whole entry): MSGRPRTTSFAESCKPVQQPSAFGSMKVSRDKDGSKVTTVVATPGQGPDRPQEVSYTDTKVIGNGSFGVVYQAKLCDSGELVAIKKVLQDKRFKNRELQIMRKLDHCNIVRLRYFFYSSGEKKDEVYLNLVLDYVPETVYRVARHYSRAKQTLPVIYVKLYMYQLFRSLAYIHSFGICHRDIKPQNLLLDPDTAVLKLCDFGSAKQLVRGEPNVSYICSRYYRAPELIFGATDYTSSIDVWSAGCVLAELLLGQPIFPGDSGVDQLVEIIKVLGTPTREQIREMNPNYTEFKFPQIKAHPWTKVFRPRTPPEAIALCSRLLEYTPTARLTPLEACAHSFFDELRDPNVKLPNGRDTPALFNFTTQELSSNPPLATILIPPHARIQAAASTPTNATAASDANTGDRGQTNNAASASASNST
Assay: Kinase assay GSK-3β
Assay type: biochemical
Conditions: Table 3 selectivity panel; glycogen synthase kinase 3β; read-out: Kinase specificity IC50 GSK-3
# pIC50 is unitless: minus log10 of the molar concentration; print number only

stdin: Could you tell me which pIC50 is on file for CNc1nc(C)c(-c2ccnc(Nc3ccc(N4CCN(Cc5ccccc5)CC4)cc3)n2)s1 ?
stdout: 5.22

stdin: Could you tell me which pIC50 is on file for Cc1nc(NC(=O)[C@H](N)[C@@H](C)O)sc1-c1ccnc(Nc2cccc([N+](=O)[O-])c2)n1 ?
stdout: 6.27

stdin: Could you tell me which pIC50 is on file for CC[C@@H](N)C(=O)Nc1nc(C)c(-c2ccnc(Nc3cccc([N+](=O)[O-])c3)n2)s1 ?
stdout: 6.17

###

Experiment: Compound cytotoxicity in PBMCs (MTS)
Assay type: cell-based
Details: human, concentration decreasing cell viability by 50%, read-out: PBMC TC50
Provide the recorded CC50 at 7 days for the entries that follow.
Return type: number; implicit unit µM.

stdin: Could you tell me which CC50 at 7 days is on file for Cc1nc(C)c(-c2ccnc(Nc3ccc(NC(=O)CN4CCCC4)cc3)n2)s1 [Compound 53] ?
stdout: 1.6

stdin: Could you tell me which CC50 at 7 days is on file for Cc1nc(N)sc1-c1ccnc(Nc2ccc(N3CCOCC3)cc2)n1 [Compound 1] ?
stdout: 6.1

stdin: Could you tell me which CC50 at 7 days is on file for Cc1nc(NC(=O)[C@H](N)[C@@H](C)O)sc1-c1ccnc(Nc2cccc([N+](=O)[O-])c2)n1 [Compound 15] ?
stdout: 2.4

stdin: Could you tell me which CC50 at 7 days is on file for CCNc1nc(C)c(-c2ccnc(Nc3ccc(N4CCOCC4)cc3)n2)s1 [Compound 4] ?
stdout: 9.4

###

Provide the recorded pIC50 for the entries that follow.
Target: GSK-3β (Homo sapiens)
Test: Kinase assay GSK-3β
Assay type: biochemical
Conditions: Table 2; read-out: Kinase Inhibition IC50 GSK-3β
# pIC50 is unitless: minus log10 of the molar concentration; print number only

stdin: Could you tell me which pIC50 is on file for CC[C@@H](N)C(=O)Nc1nc(C)c(-c2ccnc(Nc3cccc([N+](=O)[O-])c3)n2)s1 ?
stdout: 6.17

stdin: Could you tell me which pIC50 is on file for Cc1nc(C)c(-c2ccnc(Nc3ccc(N4CCN(C)CC4)cc3)n2)s1 ?
stdout: 4.28

stdin: Could you tell me which pIC50 is on file for Cc1nc(NC(=O)[C@H](N)[C@@H](C)O)sc1-c1ccnc(Nc2cccc([N+](=O)[O-])c2)n1 ?
stdout: 6.21

stdin: Could you tell me which pIC50 is on file for Cc1nc(N2CCOCC2)sc1-c1ccnc(Nc2cccc([N+](=O)[O-])c2)n1 ?
stdout: 5.62

stdin: Could you tell me which pIC50 is on file for Cc1nc(NC(=O)CCl)sc1-c1ccnc(Nc2cccc(Cl)c2)n1 ?
stdout: 7.08

stdin: Could you tell me which pIC50 is on file for Cc1nc(N)sc1-c1ccnc(Nc2ccc(S(C)(=O)=O)cc2)n1 ?
stdout: 5.27

stdin: Could you tell me which pIC50 is on file for Cc1nc(NC(=O)CCN2CCOCC2)sc1-c1ccnc(Nc2cccc([N+](=O)[O-])c2)n1 ?
stdout: 6.60

stdin: Could you tell me which pIC50 is on file for Cc1nc(N2CCOCC2)sc1-c1ccnc(Nc2ccc(N(C)C)cc2)n1 ?
stdout: 4.13

stdin: Could you tell me which pIC50 is on file for Cc1nc(C)c(-c2ccnc(Nc3ccc(N4CCNCC4)cc3)n2)s1 ?
stdout: 5.28

stdin: Could you tell me which pIC50 is on file for Cc1nc(NS(C)(=O)=O)sc1-c1ccnc(Nc2cccc([N+](=O)[O-])c2)n1 ?
stdout: 6.68

stdin: Could you tell me which pIC50 is on file for CNc1nc(C)c(-c2ccnc(Nc3cccc(CNS(=O)(=O)C(F)(F)F)c3)n2)s1 ?
stdout: 5.92

stdin: Could you tell me which pIC50 is on file for CCNc1nc(C)c(-c2ccnc(Nc3cccc(CO)c3)n2)s1 ?
stdout: 6.09

stdin: Could you tell me which pIC50 is on file for Cc1nc(NC(=O)CCl)sc1-c1ccnc(Nc2ccc(Cl)cc2)n1 ?
stdout: 6.14

stdin: Could you tell me which pIC50 is on file for Cc1nc(C)c(-c2ccnc(Nc3ccc(N4CCN(CCCO)CC4)cc3)n2)s1 ?
stdout: 4.41

stdin: Could you tell me which pIC50 is on file for Cc1nc(C)c(-c2ccnc(Nc3ccc(Cl)c(CO)c3)n2)s1 ?
stdout: 4.32

stdin: Could you tell me which pIC50 is on file for Cc1nc(N2CCOCC2)sc1-c1ccnc(Nc2cccc(O)c2)n1 ?
stdout: 4.17
